Reported values of inhibition at 10 µM for individual entries
- Measured target: 5-HT uptake (Rattus norvegicus)
- Construct: from tissue; host or cells: rat brain synaptosomes (P2 fraction) from marrow (medulla) and pons
- Method notes: Inhibition of 5-HT uptake in rat brain synaptosomes
- Format: biochemical
- Assay context: rat synaptosomes (medulla and pons), [3H]-5-HT
Write the value in % as a bare number.

CCOc1ccccc1C(=O)Nc1nc2c(s1)CCCC2C(=O)N1CCN(C(C)c2ccccc2)CC1 (stereo not shown) | 59

Recorded inhibition at 10 µM of CCOc1ccccc1C(=O)Nc1nc2c(s1)CCCC2C(=O)N1CCCC1CN1CCCC1 (stereo not shown) , please.
59

Fill blank: measured inhibition at 10 µM of the molecule CCCC(=O)Nc1nc2c(s1)CCCC2C(=O)NCC1CCN(Cc2ccc(-c3ccccc3)cc2)C1 (stereo not shown) is ____.
55

----------
- Measured target: 5-HT uptake (Rattus norvegicus, UniProt P31652)
- Construct: from tissue; host or cells: rat brain synaptosomes (P2 fraction) from marrow (medulla) and pons
- Sequence (P31652 whole entry): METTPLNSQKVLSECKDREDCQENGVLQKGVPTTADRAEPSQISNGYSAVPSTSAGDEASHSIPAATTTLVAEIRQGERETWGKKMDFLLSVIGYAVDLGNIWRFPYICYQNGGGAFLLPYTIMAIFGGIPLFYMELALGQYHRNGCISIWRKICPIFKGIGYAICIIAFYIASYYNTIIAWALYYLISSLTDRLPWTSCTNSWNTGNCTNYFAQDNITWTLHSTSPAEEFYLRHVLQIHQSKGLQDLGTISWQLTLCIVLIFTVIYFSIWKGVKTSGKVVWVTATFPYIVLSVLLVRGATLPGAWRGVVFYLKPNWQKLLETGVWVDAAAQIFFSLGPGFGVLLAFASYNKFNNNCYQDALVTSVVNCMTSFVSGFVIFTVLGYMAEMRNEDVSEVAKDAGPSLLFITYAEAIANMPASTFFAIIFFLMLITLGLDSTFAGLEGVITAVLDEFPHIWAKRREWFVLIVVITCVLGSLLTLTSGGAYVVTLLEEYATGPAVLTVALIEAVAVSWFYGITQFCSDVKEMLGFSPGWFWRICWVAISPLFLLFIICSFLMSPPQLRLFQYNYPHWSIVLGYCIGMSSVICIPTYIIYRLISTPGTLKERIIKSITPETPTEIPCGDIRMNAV
- Method notes: Inhibition of 5-HT uptake in rat brain synaptosomes
- Type: biochemical
- Assay context: rat synaptosomes (medulla and pons), [3H]-5-HT
Please note: 1 applies when inhibition at 10 µM is 50% or greater, and 0 applies otherwise.

Example entries begin here.
O=C(Cc1cc(F)cc(F)c1)Nc1nc2c(s1)CCCC2C(=O)N1CCN(C(c2ccccc2)c2ccccc2)CC1 (stereo not shown) | 0
CC(C(=O)Nc1nc2c(s1)CCCC2C(=O)N1CCN(C(C)C)CC1)c1ccccc1 (stereo not shown) | 0
O=C(Cc1cccs1)Nc1nc2c(s1)CCCC2C(=O)N1CCCC1CN1CCCC1 (stereo not shown) | 0
O=C(Cc1cc(F)cc(F)c1)Nc1nc2c(s1)CCCC2C(=O)N1CCCC1CN1CCCC1 (stereo not shown) | 1
O=C(C=Cc1ccco1)Nc1nc2c(s1)CCCC2C(=O)N1CCN(c2cccc(C(F)(F)F)c2)CC1 (stereo not shown) | 1

Quick check: does CN(CCCNC(=O)C1CCCc2sc(NC(=O)CC3CCCCC3)nc21)c1ccccc1 (stereo not shown) have inhibition at 10 µM greater than or equal to 50%?
1

Decide: is the reported value of inhibition at 10 µM for O=C(Nc1nc2c(s1)CCCC2C(=O)NCCN1CCCC1)c1ccc2ccccc2c1 (stereo not shown) equal to or greater than 50%?
1

For this compound, is measured inhibition at 10 µM 50% or higher? CC(C)(C)CC(=O)Nc1nc2c(s1)CCCC2C(=O)N1CCN(CC=Cc2ccccc2)CC1 (stereo not shown)
1

Is inhibition at 10 µM for COc1cc(OC)c(CN2CCC(NC(=O)C3CCCc4sc(NC(=O)c5ccco5)nc43)C2)c(OC)c1 (stereo not shown) at or above 50%?
1

----------
- Measured target: NA transporter (Rattus norvegicus, UniProt Q63380)
- Construct: from tissue; host or cells: rat brain synaptosomes (P2 fraction) from hypothalamus
- Sequence (Q63380 1-617): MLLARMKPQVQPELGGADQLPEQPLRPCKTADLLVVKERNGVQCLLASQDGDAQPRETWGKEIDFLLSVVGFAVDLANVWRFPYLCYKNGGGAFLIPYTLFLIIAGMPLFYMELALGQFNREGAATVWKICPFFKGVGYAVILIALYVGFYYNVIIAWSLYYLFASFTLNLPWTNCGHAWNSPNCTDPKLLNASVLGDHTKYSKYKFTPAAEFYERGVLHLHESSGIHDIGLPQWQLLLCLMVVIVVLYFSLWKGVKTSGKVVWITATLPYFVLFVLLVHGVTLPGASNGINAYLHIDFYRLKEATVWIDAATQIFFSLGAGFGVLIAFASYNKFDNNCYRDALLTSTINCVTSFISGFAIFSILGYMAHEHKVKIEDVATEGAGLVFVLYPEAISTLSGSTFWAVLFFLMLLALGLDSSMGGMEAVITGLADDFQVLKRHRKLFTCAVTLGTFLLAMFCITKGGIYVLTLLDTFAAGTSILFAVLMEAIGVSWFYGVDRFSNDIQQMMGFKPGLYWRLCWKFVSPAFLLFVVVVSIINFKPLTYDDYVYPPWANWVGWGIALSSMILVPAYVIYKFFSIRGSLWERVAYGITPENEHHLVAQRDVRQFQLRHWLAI
- Method notes: Inhibition of noradrenaline uptake in rat brain synaptosomes
- Type: biochemical
- Assay context: 10 μM; rat synaptosomes (hypothalamus), [3H]-NA
This section presents molecules with their documented % Inhibition of NA uptake [10 μM] values.
All answers are understood in %, so give the number only.

Below: 5 molecules and their reported % Inhibition of NA uptake [10 μM].
CC=CC=CC(=O)Nc1nc2c(s1)CCCC2C(=O)NCC1CCN(Cc2c(F)cccc2Cl)C1 (centres unmarked) [Example 61] | 45
O=C(Cc1cccs1)Nc1nc2c(s1)CCCC2C(=O)NCCCN1CCOCC1 (centres unmarked) [Example 14] | 43
N#Cc1ccccc1N1CCN(C(=O)C2CCCc3sc(NC(=O)CCc4ccccc4)nc32)CC1 (centres unmarked) [Example 77] | 44
CC(=O)c1ccc(N2CCN(C(=O)C3CCCc4sc(NC(=O)c5ccco5)nc43)CC2)cc1 (centres unmarked) [Example 8] | 78
CC(C(=O)Nc1nc2c(s1)CCCC2C(=O)NC1CCN(Cc2ccc(Oc3ccccc3)cc2)C1)c1ccccc1 (centres unmarked) [Example 15] | 91

Can you look up the measured % Inhibition of NA uptake [10 μM] of CCCCCC(=O)Nc1nc2c(s1)CCCC2C(=O)N1CCN(Cc2c(OC)cc(OC)cc2OC)CC1 (centres unmarked) [Example 34] for me?
50

Fill in the blank: the reported % Inhibition of NA uptake [10 μM] of O=C(Nc1nc2c(s1)CCCC2C(=O)N1CCN(CCc2ccccc2)CC1)c1ccoc1 (centres unmarked) [Example 71] is ____.
90

Recorded % Inhibition of NA uptake [10 μM] for O=C(Cc1cccs1)Nc1nc2c(s1)CCCC2C(=O)NCCN1CCCCCC1 (centres unmarked) [Example 39] , please?
50

----------
- Measured target: NA transporter (Rattus norvegicus, UniProt Q63380)
- Construct: from tissue; host or cells: rat brain synaptosomes (P2 fraction) from hypothalamus
- Method notes: Inhibition of noradrenaline uptake in rat brain synaptosomes
- Format: biochemical
- Assay context: 10 μM; rat synaptosomes (hypothalamus), [3H]-NA; read-out: % Inhibition of NA uptake [10 μM]
Categorized via inhibition at 10 µM: lower segment: < 60%; middle segment: ≥ 60% and < 70%; upper segment: ≥ 70%

O=C(Nc1nc2c(s1)CCCC2C(=O)NCCN1CCCCCC1)c1ccoc1 (centres unmarked) | upper segment
COc1ccccc1CC(=O)Nc1nc2c(s1)CCCC2C(=O)NCC1CCN(Cc2cc3ccccc3o2)C1 (centres unmarked) | lower segment
COc1cc(OC)c(CN2CCC(NC(=O)C3CCCc4sc(NC(=O)c5ccco5)nc43)C2)c(OC)c1 (centres unmarked) | upper segment

Category of CC(C(=O)Nc1nc2c(s1)CCCC2C(=O)NCCCN(C)C)c1ccccc1 (centres unmarked) :
middle segment

Assign a bin to COc1ccc(N2CCN(C(=O)C3CCCc4sc(NC(=O)C(C)c5ccccc5)nc43)CC2C)cc1 (centres unmarked)
lower segment

Pick a category. Item: CCOc1ccccc1C(=O)Nc1nc2c(s1)CCCC2C(=O)N1CCN(CCc2ccccc2)CC1 (centres unmarked)
upper segment

Input CC(C(=O)Nc1nc2c(s1)CCCC2C(=O)N1CCN(C(C)C)CC1)c1ccccc1 (centres unmarked) ; output its category
middle segment

Category of COc1ccc(C(=O)Nc2nc3c(s2)CCCC3C(=O)NCC2CCN(Cc3c(F)cccc3Cl)C2)cc1 (centres unmarked) , please.
lower segment

----------
- Measured target: NA transporter (Rattus norvegicus, UniProt Q63380)
- Construct: from tissue; host or cells: rat brain synaptosomes (P2 fraction) from hypothalamus
- Method notes: Inhibition of noradrenaline uptake in rat brain synaptosomes
- Assay type: biochemical
- Assay context: 10 μM; rat synaptosomes (hypothalamus), [3H]-NA; read-out: % Inhibition of NA uptake [10 μM]
Quick reference for inhibition at 10 µM among some molecules
Give a bare numeral; the unit % is implied.

Solved entries (count: 2):
CCOc1ccc(Br)cc1CN1CCC(NC(=O)C2CCCc3sc(NC(=O)c4ccco4)nc32)C1 (centres unmarked) | 93
CC(c1ccccc1)N1CCN(C(=O)C2CCCc3sc(NC(=O)COc4ccccc4)nc32)CC1 (centres unmarked) | 48

// lookup inhibition at 10 µM for COc1cccc(N2CCN(C(=O)C3CCCc4sc(NC(=O)c5ccccc5)nc43)CC2)c1 (centres unmarked)
60

# lookup: inhibition at 10 µM of O=C(CCc1ccccc1)Nc1nc2c(s1)CCCC2C(=O)N1CCN(c2cccc(C(F)(F)F)c2)CC1 (centres unmarked)
51

I would be grateful if you could share the reported inhibition at 10 µM for CCCC(=O)Nc1nc2c(s1)CCCC2C(=O)NCC1CCN(Cc2ccc(-c3ccccc3)cc2)C1 (centres unmarked) .
73

Can you look up the measured inhibition at 10 µM of O=C(COc1ccc(F)cc1)Nc1nc2c(s1)CCCC2C(=O)N1CCN(c2ccccc2)CC1 (centres unmarked) for me?
55

Please look up its inhibition at 10 µM: CCOc1ccccc1C(=O)Nc1nc2c(s1)CCCC2C(=O)N1CCN(C(C)c2ccccc2)CC1 (centres unmarked)
51

Item CC(C)(C)CC(=O)Nc1nc2c(s1)CCCC2C(=O)NC1CCN(Cc2ccccc2OCc2ccccc2)C1 (centres unmarked) has what recorded inhibition at 10 µM?
75

Look up inhibition at 10 µM for this molecule: O=C(Cc1ccc(F)cc1)Nc1nc2c(s1)CCCC2C(=O)N1CCN(c2ccccc2Cl)CC1 (centres unmarked)
80

Which inhibition at 10 µM value belongs to CN(C(=O)C1CCCc2sc(NC(=O)COc3ccccc3)nc21)C1CCN(Cc2ccccc2C(F)(F)F)C1 (centres unmarked) ?
44

Quick one: inhibition at 10 µM for COc1ccc(N2CCN(C(=O)C3CCCc4sc(NC(=O)c5ccccc5)nc43)CC2C)cc1 (centres unmarked) ?
48

----------
- Measured target: 5-HT uptake (Rattus norvegicus)
- Construct: from tissue; host or cells: rat brain synaptosomes (P2 fraction) from marrow (medulla) and pons
- Method notes: Inhibition of 5-HT uptake in rat brain synaptosomes
- Type: biochemical
- Assay context: rat synaptosomes (medulla and pons), [3H]-5-HT
We begin with a simple list: items and their reported inhibition at 10 µM.
Field format: number, assumed %, no unit text.

Some compounds with known inhibition at 10 µM results, for comparison:
CC(C)(C)CC(=O)Nc1nc2c(s1)CCCC2C(=O)N1CCN(Cc2ccccc2)CC1 (stereo not drawn) | 41
CCOc1ccc(Br)cc1CN1CCC(NC(=O)C2CCCc3sc(NC(=O)c4ccco4)nc32)C1 (stereo not drawn) | 72
O=C(CCc1ccccc1)Nc1nc2c(s1)CCCC2C(=O)NCC1CCN(Cc2ccc(-c3ccccc3)cc2)C1 (stereo not drawn) | 54
O=C(CCc1ccccc1)Nc1nc2c(s1)CCCC2C(=O)N1CCN(c2cccc(C(F)(F)F)c2)CC1 (stereo not drawn) | 84
O=C(Cc1ccc(F)cc1)Nc1nc2c(s1)CCCC2C(=O)N1CCN(c2ccccc2Cl)CC1 (stereo not drawn) | 50

Query compound follows.
Lab note: need inhibition at 10 µM with 5-HT uptake (Rattus norvegicus) for entry COc1ccc(C(=O)Nc2nc3c(s2)CCCC3C(=O)NCC2CCN(Cc3c(F)cccc3Cl)C2)cc1 (stereo not drawn) , please look it up.
55
